# EXPERIMENT_SUMMARY: Saturation solubility of fulvestrant in combinations of solvents/detergents (Table 2)
# Assay type: physicochemical
# ASSAY_CONDITIONS: 75% oleic acid, 12.5% ethanol, 12.5% Cremophor RH 40 (% w/v), oil or lipid, thermodynamic from solid, No 10 (% w/v): 75% Oleic Acid, 12.5% Ethanol, 12.5% Cremophor RH 40; read-out: Solubility
VALUE_TYPE: solubility

Note to self: solubility recorded for C[C@]12CC[C@@H]3c4ccc(O)cc4C[C@@H](CCCCCCCCC[S+]([O-])CCCC(F)(F)C(F)(F)F)[C@H]3[C@@H]1CC[C@@H]2O (stereo partly shown) was 113 mg/mL

---

# EXPERIMENT_SUMMARY: physchem
# ASSAY_CONDITIONS: PEG 400, organic solvent or mixture
VALUE_TYPE: solubility (mg/mL)
Respond numerically; units are mg/mL and should not be typed.

Note to self: solubility recorded for C[C@]12CC[C@@H]3c4ccc(O)cc4C[C@@H](CCCCCCCCC[S+]([O-])CCCC(F)(F)C(F)(F)F)[C@H]3[C@@H]1CC[C@@H]2O (stereo partly shown) was 24.8

---

# EXPERIMENT_SUMMARY: Saturation solubility of fulvestrant in combinations of solvents/detergents (Table 2)
# Assay type: physicochemical
# ASSAY_CONDITIONS: oil or lipid, thermodynamic from solid, No 21 (% w/v): 5% Cremophor EL 35, 5% Ethanol, 5% Benzyl Alcohol, 85% Castor Oil; read-out: Solubility
VALUE_TYPE: solubility
Number first, unit second: that is the form wanted.

Note to self: solubility recorded for C[C@]12CC[C@@H]3c4ccc(O)cc4C[C@@H](CCCCCCCCC[S+]([O-])CCCC(F)(F)C(F)(F)F)[C@H]3[C@@H]1CC[C@@H]2O (stereo partly shown) was 24.4 mg/mL

---

# EXPERIMENT_SUMMARY: Saturation solubility of fulvestrant in combinations of solvents/detergents (Table 2)
# Type: physicochemical
# ASSAY_CONDITIONS: solvent/detergent mixture, oil or lipid, thermodynamic from solid, No 25 (% w/v): 67% Oleic Acid, 22% Castor Oil, 5% Ethanol, 5% Benzyl Alcohol, 1% Poly. 20; read-out: Solubility
VALUE_TYPE: solubility (mg/mL)
Respond numerically; units are mg/mL and should not be typed.

Note to self: solubility recorded for C[C@]12CC[C@@H]3c4ccc(O)cc4C[C@@H](CCCCCCCCC[S+]([O-])CCCC(F)(F)C(F)(F)F)[C@H]3[C@@H]1CC[C@@H]2O (stereo partly shown) [Fulvestrant] was 41

---

# EXPERIMENT_SUMMARY: Saturation solubility of fulvestrant in combinations of solvents/detergents (Table 2)
# Assay type: physicochemical
# ASSAY_CONDITIONS: solvent/detergent mixture, oil or lipid, thermodynamic from solid, No 24 (% w/v): 44.5% Oleic Acid, 44.5% Castor Oil, 5% Ethanol, 5% Benzyl Alcohol, 1% Poly. 20; read-out: Solubility
VALUE_TYPE: solubility
Number first, unit second: that is the form wanted.

Note to self: solubility recorded for C[C@]12CC[C@@H]3c4ccc(O)cc4C[C@@H](CCCCCCCCC[S+]([O-])CCCC(F)(F)C(F)(F)F)[C@H]3[C@@H]1CC[C@@H]2O (stereo partly shown) was 51.9 mg/mL

---

# EXPERIMENT_SUMMARY: Saturation solubility of fulvestrant in combinations of solvents/detergents (Table 2)
# Format: physicochemical
# ASSAY_CONDITIONS: 60% castor oil, 18% BA, 13% ethanol, 9% Lipoid E 80 (% w/v), oil or lipid, thermodynamic from solid, No 14 (% w/v): 60% Castor Oil, 18% BA, 13% Ethanol, 9% Lipoid E 80; read-out: Solubility
VALUE_TYPE: solubility
Number first, unit second: that is the form wanted.

Note to self: solubility recorded for C[C@]12CC[C@@H]3c4ccc(O)cc4C[C@@H](CCCCCCCCC[S+]([O-])CCCC(F)(F)C(F)(F)F)[C@H]3[C@@H]1CC[C@@H]2O (stereo partly shown) [Fulvestrant] was 63 mg/mL
